biological target: Death-associated protein kinase 1 (Homo sapiens) (UniProt P53355); conditions: at 0.1 µM;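 also: reported figure is the mean inhibition of DAPK1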
Sequence (P53355 whole entry, looked up): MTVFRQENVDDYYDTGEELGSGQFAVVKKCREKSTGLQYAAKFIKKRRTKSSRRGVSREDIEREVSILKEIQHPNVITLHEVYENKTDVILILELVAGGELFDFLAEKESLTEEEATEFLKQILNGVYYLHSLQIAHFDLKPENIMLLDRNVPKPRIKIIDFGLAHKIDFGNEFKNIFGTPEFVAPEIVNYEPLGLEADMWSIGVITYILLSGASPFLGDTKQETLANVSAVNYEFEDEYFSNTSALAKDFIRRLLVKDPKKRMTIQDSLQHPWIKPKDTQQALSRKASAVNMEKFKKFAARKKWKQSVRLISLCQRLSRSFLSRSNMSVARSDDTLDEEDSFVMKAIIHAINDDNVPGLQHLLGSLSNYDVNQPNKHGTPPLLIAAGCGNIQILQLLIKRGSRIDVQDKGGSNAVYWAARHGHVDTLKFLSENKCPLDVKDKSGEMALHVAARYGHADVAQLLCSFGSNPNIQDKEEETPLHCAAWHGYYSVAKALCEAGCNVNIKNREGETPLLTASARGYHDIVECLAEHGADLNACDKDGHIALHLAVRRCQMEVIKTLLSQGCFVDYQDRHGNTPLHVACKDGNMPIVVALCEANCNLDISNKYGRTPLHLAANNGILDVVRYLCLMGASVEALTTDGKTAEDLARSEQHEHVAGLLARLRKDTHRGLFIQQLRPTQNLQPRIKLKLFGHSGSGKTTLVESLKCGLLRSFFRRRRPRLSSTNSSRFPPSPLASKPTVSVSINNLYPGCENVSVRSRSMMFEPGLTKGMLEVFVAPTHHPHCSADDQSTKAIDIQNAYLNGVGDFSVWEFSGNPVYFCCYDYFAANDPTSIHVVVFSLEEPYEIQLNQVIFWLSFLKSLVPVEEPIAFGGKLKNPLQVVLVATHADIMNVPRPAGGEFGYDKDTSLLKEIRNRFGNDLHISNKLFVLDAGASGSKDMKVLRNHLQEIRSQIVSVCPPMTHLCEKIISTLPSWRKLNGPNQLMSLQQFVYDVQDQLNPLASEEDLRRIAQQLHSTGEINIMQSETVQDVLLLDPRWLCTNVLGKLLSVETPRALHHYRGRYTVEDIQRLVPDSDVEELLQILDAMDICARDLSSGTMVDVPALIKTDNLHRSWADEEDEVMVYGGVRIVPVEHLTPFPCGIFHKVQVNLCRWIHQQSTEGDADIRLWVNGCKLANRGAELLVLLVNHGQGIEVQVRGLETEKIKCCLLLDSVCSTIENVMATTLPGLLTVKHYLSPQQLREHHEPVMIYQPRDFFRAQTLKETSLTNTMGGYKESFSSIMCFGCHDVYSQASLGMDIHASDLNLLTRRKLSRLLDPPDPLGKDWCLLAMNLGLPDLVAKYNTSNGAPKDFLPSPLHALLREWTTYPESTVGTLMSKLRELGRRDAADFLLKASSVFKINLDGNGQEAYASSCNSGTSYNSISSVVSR
Each entry below lists one item and its recorded inhibition value.
Measured Parameter: inhibition (%)

> print(dat)
                                smiles.text                           target.of.assay  experimental.value
1  Fc1ccc(-c2ncn(C3CCNCC3)c2-c2ccnc(Oc3ccccc3)n2)cc1  Death-associated protein kinase 1 (Homo sapiens) (UniProt P53355)               -0.62
2  NS(=O)(=O)c1ccc(N/C=C2\C(=O)Nc3ccc4ncsc4c32)cc1  Death-associated protein kinase 1 (Homo sapiens) (UniProt P53355)                5.66
3   COc1cc(C=NNc2ncnc3c2cnn3Cc2ccccc2)ccc1O  Death-associated protein kinase 1 (Homo sapiens) (UniProt P53355)               -3.06
4            Nc1nonc1-c1nc2cnccc2n1C1CCCCC1  Death-associated protein kinase 1 (Homo sapiens) (UniProt P53355)               -1.34
5  COc1cccc(-n2ncc3c(N/N=C/c4ccncc4)ncnc32)c1  Death-associated protein kinase 1 (Homo sapiens) (UniProt P53355)                4.45
6  CCn1c(-c2nonc2N)nc2c(C#CC(C)(C)O)ncc(OCC3CCNCC3)c21  Death-associated protein kinase 1 (Homo sapiens) (UniProt P53355)                 1.8
7  CCn1c(-c2nonc2N)nc2c(C#CCN)ncc(OCCCN)c21  Death-associated protein kinase 1 (Homo sapiens) (UniProt P53355)               -2.99
8  COc1cccc(COc2cc(-n3cnc4ccccc43)sc2C(N)=O)c1  Death-associated protein kinase 1 (Homo sapiens) (UniProt P53355)                1.92
9  NC(=O)c1sc(-n2cnc3cc(C(F)(F)F)ccc32)cc1OCc1ccccc1Br  Death-associated protein kinase 1 (Homo sapiens) (UniProt P53355)                1.27

====

Readings of inhibition for the listed compounds
molecular target: Receptor tyrosine-protein kinase erbB-2 (Homo sapiens) (UniProt P04626); conditions: at 0.1 µM;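 also: each value is the mean percent inhibition of ERBB2 over replicate measurements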
Sequence (P04626 whole entry): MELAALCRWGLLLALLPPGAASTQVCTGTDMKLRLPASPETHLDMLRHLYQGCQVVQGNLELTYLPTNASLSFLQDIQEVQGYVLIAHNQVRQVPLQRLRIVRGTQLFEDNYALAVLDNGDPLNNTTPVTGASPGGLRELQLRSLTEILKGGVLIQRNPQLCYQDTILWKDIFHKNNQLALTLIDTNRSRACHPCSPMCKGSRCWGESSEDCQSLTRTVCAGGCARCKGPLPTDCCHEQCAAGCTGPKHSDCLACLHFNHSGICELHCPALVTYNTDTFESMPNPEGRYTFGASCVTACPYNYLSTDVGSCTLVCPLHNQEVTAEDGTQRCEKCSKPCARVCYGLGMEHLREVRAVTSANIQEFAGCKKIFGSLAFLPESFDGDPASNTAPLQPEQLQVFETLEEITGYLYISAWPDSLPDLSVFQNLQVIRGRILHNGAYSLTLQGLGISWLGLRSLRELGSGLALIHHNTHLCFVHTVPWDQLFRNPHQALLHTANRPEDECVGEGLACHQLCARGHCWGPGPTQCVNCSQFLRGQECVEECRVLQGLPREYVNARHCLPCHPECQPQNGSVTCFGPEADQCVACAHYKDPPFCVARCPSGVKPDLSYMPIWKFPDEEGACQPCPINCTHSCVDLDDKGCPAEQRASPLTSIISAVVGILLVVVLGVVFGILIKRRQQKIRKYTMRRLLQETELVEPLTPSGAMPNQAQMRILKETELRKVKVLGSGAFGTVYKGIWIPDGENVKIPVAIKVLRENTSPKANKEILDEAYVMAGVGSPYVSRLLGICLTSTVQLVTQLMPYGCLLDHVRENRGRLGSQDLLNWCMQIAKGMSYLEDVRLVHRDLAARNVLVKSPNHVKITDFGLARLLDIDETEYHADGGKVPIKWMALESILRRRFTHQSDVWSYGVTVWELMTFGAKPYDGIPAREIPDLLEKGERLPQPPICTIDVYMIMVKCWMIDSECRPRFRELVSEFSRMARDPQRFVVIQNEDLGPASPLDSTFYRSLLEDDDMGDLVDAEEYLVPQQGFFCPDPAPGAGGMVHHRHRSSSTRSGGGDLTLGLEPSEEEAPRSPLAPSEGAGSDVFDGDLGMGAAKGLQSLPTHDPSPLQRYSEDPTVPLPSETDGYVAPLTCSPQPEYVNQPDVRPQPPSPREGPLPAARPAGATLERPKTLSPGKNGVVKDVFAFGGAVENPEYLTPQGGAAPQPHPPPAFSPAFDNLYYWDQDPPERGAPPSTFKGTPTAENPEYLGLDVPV
Measured Parameter: inhibition

> print(dat)
                                smiles.text  experimental.value
1            Nc1nonc1-c1nc2cnccc2n1C1CCCCC1              -3.46%
2  CCn1c(-c2nonc2N)nc2c(C#CC(C)(C)O)nc(O[C@@H](CN)c3ccccc3)cc21              -2.68%
3  NS(=O)(=O)c1ccc(N/C=C2\C(=O)Nc3ccc4ncsc4c32)cc1               2.78%
4  NC(=O)c1sc(-n2cnc3cc(C(F)(F)F)ccc32)cc1OCc1ccccc1Br               3.19%
5  COc1cccc(COc2cc(-n3cnc4ccccc43)sc2C(N)=O)c1               2.53%

====

molecular target: Fibroblast growth factor receptor 4 (Homo sapiens) (UniProt P22455); details: at 1 µM;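 also: reported figure is the averaged percent inhibition of FGFR4, from the GSK PKIS kinase screening panel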
Sequence (P22455 22-802 limits assumed): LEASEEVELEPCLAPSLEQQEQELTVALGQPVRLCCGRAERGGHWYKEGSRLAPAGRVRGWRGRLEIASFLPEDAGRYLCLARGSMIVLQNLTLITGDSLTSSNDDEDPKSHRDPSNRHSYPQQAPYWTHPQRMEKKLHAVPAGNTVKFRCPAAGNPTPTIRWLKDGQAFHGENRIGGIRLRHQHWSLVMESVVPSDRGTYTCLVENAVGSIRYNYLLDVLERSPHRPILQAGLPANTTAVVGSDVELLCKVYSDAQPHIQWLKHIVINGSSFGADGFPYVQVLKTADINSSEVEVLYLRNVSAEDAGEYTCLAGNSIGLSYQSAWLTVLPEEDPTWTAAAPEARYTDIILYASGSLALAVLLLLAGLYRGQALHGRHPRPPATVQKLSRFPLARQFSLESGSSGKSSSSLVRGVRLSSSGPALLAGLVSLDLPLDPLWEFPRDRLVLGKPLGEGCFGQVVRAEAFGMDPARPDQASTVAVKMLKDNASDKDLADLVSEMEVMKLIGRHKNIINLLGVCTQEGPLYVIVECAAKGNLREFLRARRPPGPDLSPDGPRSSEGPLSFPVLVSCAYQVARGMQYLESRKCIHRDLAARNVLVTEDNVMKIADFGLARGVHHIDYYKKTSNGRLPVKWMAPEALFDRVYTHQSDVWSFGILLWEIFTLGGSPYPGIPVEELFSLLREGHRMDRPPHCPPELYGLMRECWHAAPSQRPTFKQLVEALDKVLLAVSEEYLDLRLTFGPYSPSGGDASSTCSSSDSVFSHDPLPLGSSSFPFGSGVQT
Measured Parameter: inhibition (%)

> print(dat)
                                smiles.text  measured.parameter  output.unit  experimental.value
1  CCn1c(-c2nonc2N)nc2c(C#CC(C)(C)O)nc(O[C@@H](CN)c3ccccc3)cc21          inhibition            %                1.13
2            Nc1nonc1-c1nc2cnccc2n1C1CCCCC1          inhibition            %               -1.15
3  COc1cccc(-n2ncc3c(N/N=C/c4ccncc4)ncnc32)c1          inhibition            %                7.56
4  COc1cc2c(cc1Nc1nc(Nc3ccsc3C(N)=O)c3cc[nH]c3n1)N(C(=O)CN(C)C)CCC2          inhibition            %                1.79
5  COc1cccc(COc2cc(-n3cnc4ccccc43)sc2C(N)=O)c1          inhibition            %                1.25
6  CCn1c(-c2nonc2N)nc2c(C#CC(C)(C)O)ncc(OCC3CCNCC3)c21          inhibition            %               -3.68

====

# inhibition per record follows
test system: Platelet-derived growth factor receptor alpha (Homo sapiens), P16234 [V561D]; conditions: at 0.1 µM
Sequence (P16234 whole entry V561D): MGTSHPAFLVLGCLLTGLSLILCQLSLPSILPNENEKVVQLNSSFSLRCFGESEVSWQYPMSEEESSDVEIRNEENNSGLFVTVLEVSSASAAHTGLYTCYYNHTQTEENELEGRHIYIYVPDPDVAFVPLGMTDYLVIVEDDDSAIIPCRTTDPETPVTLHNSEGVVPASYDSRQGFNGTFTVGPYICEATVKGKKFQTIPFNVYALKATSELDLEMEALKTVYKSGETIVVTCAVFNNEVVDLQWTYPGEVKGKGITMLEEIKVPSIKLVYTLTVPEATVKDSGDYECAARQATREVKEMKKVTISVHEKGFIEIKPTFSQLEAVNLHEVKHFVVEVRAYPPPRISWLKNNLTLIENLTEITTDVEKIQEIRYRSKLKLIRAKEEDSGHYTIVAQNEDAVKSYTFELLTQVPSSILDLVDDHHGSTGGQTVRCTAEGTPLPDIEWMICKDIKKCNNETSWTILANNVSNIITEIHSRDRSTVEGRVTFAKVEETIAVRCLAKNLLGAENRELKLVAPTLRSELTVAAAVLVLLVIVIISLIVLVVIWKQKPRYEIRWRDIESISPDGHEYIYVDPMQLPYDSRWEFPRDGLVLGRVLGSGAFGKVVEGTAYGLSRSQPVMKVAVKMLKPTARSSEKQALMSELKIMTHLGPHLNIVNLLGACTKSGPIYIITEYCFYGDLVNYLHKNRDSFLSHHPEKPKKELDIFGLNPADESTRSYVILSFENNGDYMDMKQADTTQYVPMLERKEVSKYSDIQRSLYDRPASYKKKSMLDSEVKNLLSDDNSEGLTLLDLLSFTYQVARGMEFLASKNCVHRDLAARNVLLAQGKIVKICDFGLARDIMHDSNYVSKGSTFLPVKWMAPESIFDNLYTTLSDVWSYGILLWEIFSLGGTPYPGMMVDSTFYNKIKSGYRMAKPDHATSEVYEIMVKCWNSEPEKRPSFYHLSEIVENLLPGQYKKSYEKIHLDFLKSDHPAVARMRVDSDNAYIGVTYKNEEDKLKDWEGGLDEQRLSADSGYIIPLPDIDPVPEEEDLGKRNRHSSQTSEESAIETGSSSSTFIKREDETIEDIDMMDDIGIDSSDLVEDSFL
Measured Parameter: inhibition

> print(dat)
                                smiles.text  measured.parameter  experimental.value
1  COc1cccc(COc2cc(-n3cnc4ccccc43)sc2C(N)=O)c1          inhibition               0.87%
2  COc1cc2c(cc1Nc1nc(Nc3ccsc3C(N)=O)c3cc[nH]c3n1)N(C(=O)CN(C)C)CCC2          inhibition               3.24%
3  CCn1c(-c2nonc2N)nc2c(C#CCN)ncc(OCCCN)c21          inhibition               4.02%
4            Nc1nonc1-c1nc2cnccc2n1C1CCCCC1          inhibition               2.95%
5  CCn1c(-c2nonc2N)nc2c(C#CC(C)(C)O)ncc(OCC3CCNCC3)c21          inhibition                5.4%
6  Cc1cc(-c2ccco2)cc(C)c1/C=C/c1cncc(-c2nn[nH]n2)c1          inhibition               2.25%
7  CCn1c(-c2nonc2N)nc2c(C#CC(C)(C)O)nc(O[C@@H](CN)c3ccccc3)cc21          inhibition               29.6%

====

molecular target: Fibroblast growth factor receptor 2 (Homo sapiens); conditions: at 0.1 µM;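 also: values are mean percent inhibition of FGFR2 kinase, measured within the GSK Published Kinase Inhibitor Set (PKIS) screening panel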
Items are presented alongside their recorded inhibition.
Measured Parameter: inhibition (%)

> print(dat)
                                smiles.text  output.unit  experimental.value
1  Cc1cc(-c2ccco2)cc(C)c1/C=C/c1cncc(-c2nn[nH]n2)c1            %                1.69
2  CCn1c(-c2nonc2N)nc2c(C#CC(C)(C)O)nc(O[C@@H](CN)c3ccccc3)cc21            %                0.17
3  Fc1ccc(-c2ncn(C3CCNCC3)c2-c2ccnc(Oc3ccccc3)n2)cc1            %               -0.63
4   COc1cc(C=NNc2ncnc3c2cnn3Cc2ccccc2)ccc1O            %               -7.09
5  CCn1c(-c2nonc2N)nc2c(C#CC(C)(C)O)ncc(OCC3CCNCC3)c21            %               -1.71
6  COc1cccc(-n2ncc3c(N/N=C/c4ccncc4)ncnc32)c1            %                4.98
7            Nc1nonc1-c1nc2cnccc2n1C1CCCCC1            %               -6.69
8  NS(=O)(=O)c1ccc(N/C=C2\C(=O)Nc3ccc4ncsc4c32)cc1            %                18.8
9  COc1cccc(COc2cc(-n3cnc4ccccc43)sc2C(N)=O)c1            %               -0.92

====

tested on: Tyrosine-protein kinase ABL1 (Homo sapiens), P00519 [T315I]; details: at 0.1 µM
Measured inhibition, listed per entry.
Measured Parameter: inhibition (%)

> print(dat)
                                smiles.text  measured.parameter  output.unit  experimental.value
1            Nc1nonc1-c1nc2cnccc2n1C1CCCCC1          inhibition            %               -1.05
2  CCn1c(-c2nonc2N)nc2c(C#CC(C)(C)O)ncc(OCC3CCNCC3)c21          inhibition            %                 0.9
3  CCn1c(-c2nonc2N)nc2c(C#CC(C)(C)O)nc(O[C@@H](CN)c3ccccc3)cc21          inhibition            %                1.03
4  CCn1c(-c2nonc2N)nc2c(C#CCN)ncc(OCCCN)c21          inhibition            %               -2.53

====

molecular target: Tyrosine-protein kinase ITK/TSK (Homo sapiens); conditions: at 1 µM;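 also: values are mean percent inhibition of ITK from the GSK PKIS screen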
Measured Parameter: inhibition (%)

> print(dat)
                                smiles.text                           target.of.assay  measured.parameter  experimental.value
1  NC(=O)c1sc(-n2cnc3cc(C(F)(F)F)ccc32)cc1OCc1ccccc1Br  Tyrosine-protein kinase ITK/TSK (Homo sapiens)          inhibition                1.42
2  Cc1cc(-c2ccco2)cc(C)c1/C=C/c1cncc(-c2nn[nH]n2)c1  Tyrosine-protein kinase ITK/TSK (Homo sapiens)          inhibition                 0.9
3  COc1cc2c(cc1Nc1nc(Nc3ccsc3C(N)=O)c3cc[nH]c3n1)N(C(=O)CN(C)C)CCC2  Tyrosine-protein kinase ITK/TSK (Homo sapiens)          inhibition                0.88
4  CCn1c(-c2nonc2N)nc2c(C#CCN)ncc(OCCCN)c21  Tyrosine-protein kinase ITK/TSK (Homo sapiens)          inhibition               -1.36
5   COc1cc(C=NNc2ncnc3c2cnn3Cc2ccccc2)ccc1O  Tyrosine-protein kinase ITK/TSK (Homo sapiens)          inhibition                0.65
